meta.source: ChEMBL document CHEMBL3994588

# measurementTarget: Peroxisome proliferator-activated receptor gamma (Homo sapiens, UniProt P37231)
# Sequence (P37231 whole entry, the tested form may be a part): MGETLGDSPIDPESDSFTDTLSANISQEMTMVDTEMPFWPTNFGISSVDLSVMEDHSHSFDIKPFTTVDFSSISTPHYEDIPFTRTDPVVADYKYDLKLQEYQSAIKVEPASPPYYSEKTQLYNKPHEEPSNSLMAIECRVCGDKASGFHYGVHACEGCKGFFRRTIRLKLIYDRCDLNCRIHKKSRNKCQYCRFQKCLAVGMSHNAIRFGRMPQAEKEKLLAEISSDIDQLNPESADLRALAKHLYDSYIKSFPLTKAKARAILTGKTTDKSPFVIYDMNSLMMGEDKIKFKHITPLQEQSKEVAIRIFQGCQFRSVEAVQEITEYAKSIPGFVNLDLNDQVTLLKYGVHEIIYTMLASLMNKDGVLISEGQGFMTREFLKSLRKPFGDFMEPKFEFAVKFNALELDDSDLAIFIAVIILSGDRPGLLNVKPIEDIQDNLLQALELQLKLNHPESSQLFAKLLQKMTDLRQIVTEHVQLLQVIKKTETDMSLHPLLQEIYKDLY
# measurementDescription: Transactivation of Gal4 fused human PPARgamma LBD expressed in African green monkey COS7 cells after 42 hrs by dual luciferase reporter gene assay
# Format: cell-based
# testContext: read-out: EC50
propertyLabel: pEC50
The value called pEC50 is obtained by taking minus log10 of the concentration in mol/L.

compoundSmiles	propertyLabel	measurement
CCCc1nc2ccc(-c3ccc(Cl)cc3)cc2n1Cc1ccc(-c2ccccc2C(=O)O)cc1	pEC50	5.94
CCCc1nc2ccc(-c3ccc(OC)cc3)cc2n1Cc1ccc(-c2ccccc2C(=O)O)cc1	pEC50	6.00
CCCc1nc2cc(-c3ccc(OC)cc3)ccc2n1Cc1ccc(-c2ccccc2C(=O)O)cc1	pEC50	6.39

Sample CCCc1nc2cc(-c3ccccc3Cl)ccc2n1Cc1ccc(-c2ccccc2C(=O)O)cc1 ; pEC50 observed: 6.03
